Hey, just so you know, these numbers are from PubChem BioAssay (NCI).

The reader will find reported growth values listed item by item below.
# Tested on: OVCAR-4 ovarian
# MEASUREMENT DESCRIPTION: NCI-60 one-dose screen, 48 h (100 = growth as untreated, 0 = no growth, -100 = all killed)
# EXPERIMENTAL CONTEXT: 10 µM
This is part of a sample that, as a whole, favours compounds with a hit. Of some 83,000 tested, about 20% had one in any assay.
EXPERIMENTAL READOUT: growth (%)

INSERT INTO results (compound, readout_value) VALUES
  ('Nc1nc(OCc2ccccc2)c2[nH]cnc2n1', 65.9),
  ('O=[N+]([O-])c1cccc(N=Nc2ccc(O)cc2O)c1', 62.3),
  ('CCOc1ccc2[nH]c(=S)sc2c1', 108),
  ('COc1cc(/C=C(\C#N)C(=O)c2ccccc2)ccc1OCc1ccccc1', 106),
  ('O=C(O)c1cc([N+](=O)[O-])ccc1Cl', 107),
  ('C=CCNc1nnc(C)s1', 113),
  ('COC(=O)C(O)c1ccccc1 (configuration not stated)', 113);
